tested.target: T1, extracellular domain (ECD) of human epidermal growth factor receptor 2 (HER2) (Homo sapiens, UniProt P04626)
T1 construct: human epidermal growth factor receptor 2 (HER2), extracellular domain; also called HER2/ECD
assay.remarks: SPR; BIAcore T200; HER2/ECD immobilised on a CM5 chip by amine coupling to 1000 RU; IgG flowed in PBST (0.05% Tween 20) at 30 uL/min; regeneration 10 mM glycine pH 1.5; global fit to a 1:1 binding model
condition.context: both partners purified

{"binder": "M62 IgG (mouse anti-HER2/ECD) (antibody, V domains shown, mouse VL; L49~L53 HSASY; L91~L96 YNSYPL; mouse VH; H50~H58 EIYPGGGNPY; H96~H100B YKYDVS; recombinant IgG from a scFv of an immunized mouse's phage library; source: HEK293-F, transient transfection, purified (Protein A, Superdex 200)) VH: EVQLQQSGTELARPGASVKLSCKASGYTFIDYYITWVKQRTGQGLEWIGEIYPGGGNPYYNDNFKGKASLTADKSSNTVYMQLSSLTSEDSAVYFCARSYKYDVSVYWGQGTLVTVSA VL: DIQMIQSQKFMSTSVGDRVSVTCKASQNVGTNVAWYQQKPGQSPKALIHSASYRYSGVPDRFTGSGSGTDFTLTISNVQSEDLAEYFCQQYNSYPLTFGAGTKLEIK", "result.units": "nM", "Kd": 0.0228}
{"binder": "GH2-7 IgG (antibody, V domains shown, source: HEK293-F, transient transfection, purified (Protein A, Superdex 200)) VH: EVQLVESGGGLVQPGGSLRLSCAASGFTIDDYFIHWVRQAPGKGLEWVAGIGPSWGYTFYADSVKGRFTISADTSKNTAYLQMNSLRAEDTAVYYCARFGHNFVNGMDYWGQGTLVTVSS VL: DIQMTQSPSSLSASVGDRVTITCRASQDVSGWVAWYQQKPGKAPKLLISGTAGLYSGVPSRFSGSGSGTDFTLTISSLQPEDFATYYCQQYYDFPVTFGQGTKVEIK", "result.units": "nM", "Kd": 9.84}
{"binder": "GH2-36 IgG (antibody, V domains shown, source: HEK293-F, transient transfection, purified (Protein A, Superdex 200)) VH: EVQLVESGGGLVQPGGSLRLSCAASGFTIGGGGIHWVRQAPGKGLEWVAYIGPYGGYTSYADSVKGRFTISADTSKNTAYLQMNSLRAEDTAVYYCARFHDHIGGIMDYWGQGTLVTVSS VL: DIQMTQSPSSLSASVGDRVTITCRASQDVNSNVAWYQQEPGKAPKLLIYFSSGLYSGVPSRFSGSGSGTDFTLTISSLQPEDFATYYCQQYYNWPLTFGQGTKVEIK", "result.units": "nM", "Kd": 8.85}
